- Target: UniProt:P08183
- Sequence (P08183 whole entry): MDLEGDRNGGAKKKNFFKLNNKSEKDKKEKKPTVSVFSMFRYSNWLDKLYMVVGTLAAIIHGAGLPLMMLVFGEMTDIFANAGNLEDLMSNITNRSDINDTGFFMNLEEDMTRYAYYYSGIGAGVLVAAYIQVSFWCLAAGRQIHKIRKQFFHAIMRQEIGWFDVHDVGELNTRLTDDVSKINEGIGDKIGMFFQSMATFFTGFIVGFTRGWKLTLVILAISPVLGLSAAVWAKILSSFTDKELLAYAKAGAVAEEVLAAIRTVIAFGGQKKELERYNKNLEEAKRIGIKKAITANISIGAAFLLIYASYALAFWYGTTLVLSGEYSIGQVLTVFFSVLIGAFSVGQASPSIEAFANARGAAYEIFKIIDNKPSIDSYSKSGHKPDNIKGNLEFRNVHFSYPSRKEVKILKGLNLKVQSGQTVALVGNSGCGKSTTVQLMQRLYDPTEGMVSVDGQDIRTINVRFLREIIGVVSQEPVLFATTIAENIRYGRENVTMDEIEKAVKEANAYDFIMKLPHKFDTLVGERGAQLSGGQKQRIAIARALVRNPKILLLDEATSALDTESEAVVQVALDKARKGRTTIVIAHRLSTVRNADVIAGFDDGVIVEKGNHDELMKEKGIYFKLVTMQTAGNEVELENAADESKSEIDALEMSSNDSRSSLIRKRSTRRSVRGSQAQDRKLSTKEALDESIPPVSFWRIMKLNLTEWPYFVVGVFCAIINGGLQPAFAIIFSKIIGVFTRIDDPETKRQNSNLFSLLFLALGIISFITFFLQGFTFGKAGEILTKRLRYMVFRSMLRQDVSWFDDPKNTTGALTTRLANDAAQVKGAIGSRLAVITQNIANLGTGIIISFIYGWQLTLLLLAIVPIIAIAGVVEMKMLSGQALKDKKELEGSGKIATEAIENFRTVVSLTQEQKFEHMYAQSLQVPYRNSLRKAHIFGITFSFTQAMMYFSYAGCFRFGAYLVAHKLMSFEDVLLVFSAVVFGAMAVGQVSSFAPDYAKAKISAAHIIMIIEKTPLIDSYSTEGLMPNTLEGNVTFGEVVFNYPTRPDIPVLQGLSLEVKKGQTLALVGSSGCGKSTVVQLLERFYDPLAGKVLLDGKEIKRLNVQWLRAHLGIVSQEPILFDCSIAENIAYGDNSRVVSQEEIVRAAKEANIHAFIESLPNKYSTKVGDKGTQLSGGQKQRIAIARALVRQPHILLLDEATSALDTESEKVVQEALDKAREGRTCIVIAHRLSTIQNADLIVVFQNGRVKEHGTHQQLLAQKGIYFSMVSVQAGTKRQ
- Experimental Details: Induction of human histidine10-tagged MDR1 ATPase activity expressed in BHK cells relative to basal activity; also: test concentration or dose not given here
- Test Parameters: human histidine10-tagged MDR1 expressed in BHK cells
Recorded Metric: fold induction

* CN(C)c1ccc2c(CCCOc3ccccc3)c3ccc(=[N+](C)C)cc-3sc2c1 | 6.2
* CN(C)c1cccc(-c2c3ccc(=[N+](C)C)cc-3sc3cc(N(C)C)ccc23)c1 | 7.7
* CN(C)c1ccc2c(-c3ccc(N4CCOCC4)cc3)c3ccc(=[N+](C)C)cc-3sc2c1 | 4.8
* CN(C)c1ccc2c(-c3ccc(C(=O)O)s3)c3ccc(=[N+](C)C)cc-3[te]c2c1 | 1.8
* CN(C)c1ccc2c(-c3ccc(N4CCOCC4)cc3)c3ccc(=[N+](C)C)cc-3[se]c2c1 | 3.3
* CN(C)c1ccc2c(-c3ccc(C(=O)O)s3)c3ccc(=[N+](C)C)cc-3sc2c1 | 2.7
* CN(C)c1ccc2c(-c3ccccc3)c3ccc(=[N+](C)C)cc-3[te]c2c1 | 8.4
* CN(C)c1ccc(-c2c3ccc(=[N+](C)C)cc-3[te]c3cc(N(C)C)ccc23)cc1 | 4.5
* COc1ccc(-c2c3ccc(=[N+](C)C)cc-3sc3cc(N(C)C)ccc23)cc1OC.F[P-](F)(F)(F)(F)F | 8.2
* CN(C)c1ccc2c(-c3ccsc3C(=O)O)c3ccc(=[N+](C)C)cc-3sc2c1 | 4.3
* COc1cccc(-c2c3ccc(=[N+](C)C)cc-3[te]c3cc(N(C)C)ccc23)c1 | 5.7
* CN(C)c1ccc2c(-c3ccsc3C(=O)O)c3ccc(=[N+](C)C)cc-3[se]c2c1 | 2.1
* COc1cccc(-c2c3ccc(=[N+](C)C)cc-3[se]c3cc(N(C)C)ccc23)c1 | 2.5
* CN(C)c1ccc2c(-c3ccccc3)c3ccc(=[N+](C)C)cc-3[se]c2c1 | 7.2
